These measurements were taken from BindingDB's records for doi:10.1021/jm070166b.

assay: Antagonist activity against human CCR2 receptor in human monocytes assessed as inhibition of chemotaxis
measurement-kind: IC50 (nM)
Report the figure in nM without appending any unit label.

Suppose we examine the compound C[C@H]1CN([C@@H]2CC[C@H](C(=O)NCc3cc(C(F)(F)F)cc(C(F)(F)F)c3)C2)CC[C@@]12C=Cc1ccccc12 ; what IC50 value has been reported?
57
